# Test system: MG-63
# ASSAY_SUMMARY: Solid tumor cell growth inhibition, MTT, 72 h
# Type: cell-based
# STUDY_CONDITIONS: Homo sapiens
Would you mind telling me the reported IC90 of each entry?
The response must be a number in µg/mL with no trailing unit.

Request: Return reported IC90. Input molecule: C=C1C(=O)[C@]23[C@H](OC(=O)c4ccc(Cl)cc4)[C@H]1CC[C@H]2[C@@]12CO[C@@]3(O)[C@@H](O)[C@@H]1C(C)(C)CC[C@@H]2OC(C)=O [BS-OR-093]
Response: 2.31

Request: Return reported IC90. Input molecule: C=C1C(=O)[C@]23[C@H](OC(=O)c4ccc(OC)cc4)[C@H]1CC[C@H]2[C@@]12CO[C@@]3(O)[C@@H](O)[C@@H]1C(C)(C)CCC2OC(C)=O (stereo partly drawn) [BS-OR-091]
Response: 1.46

Request: Return reported IC90. Input molecule: C=C1C(=O)[C@]23[C@H](OC(=O)C4CCN(S(=O)(=O)CC)CC4)[C@H]1CC[C@H]2[C@@]12CO[C@@]3(O)[C@@H](O)[C@@H]1C(C)(C)CCC2=O [BS-OR-038]
Response: 4.89

This collection of values is drawn from patent US9902736B2.
